Test system: HT29 colon cells
Assay Overview: ROS detection assay (DCFH-DA fluorescence)
Assay type: cell-based, human
Condition Notes: 48 h, compounds at GI50 concentration, TBHP and NAC 20 μM
Decide using ROS Production: a value greater than or equal to 200 RFU is y, a smaller one is n.

Check out these entries, answers already filled in.
- Compound: "N.N.[Cl][Pt][Cl] [Cisplatin, cis-diamminedichloroplatinum(II), reference compound]"
  Assigned Label: "y"
- Compound: "CC(=O)N[C@@H](CS)C(=O)O [NAC, N-acetylcysteine, reference compound]"
  Assigned Label: "n"
- Compound: "N[C@H]1CCCC[C@@H]1N.[Cl][Pt][Cl].c1cnc2c(c1)ccc1cccnc12"
  Assigned Label: "n"

Now take the following compound into account.
Query: Tell me whether ROS Production is at least 200 RFU here: `Cc1c(C)c2cccnc2c2ncccc12.N[C@H]1CCCC[C@@H]1N.[Cl][Pt][Cl]`
Result: y

---

Tested on: HT29 colon cells
Assay Overview: ROS detection assay (DCFH-DA fluorescence)
Assay type: cell-based, human
Condition Notes: 24 h, compounds at GI50 concentration, TBHP and NAC 20 μM
Readout Label: ROS Production (RFU)
Expressed in RFU, but write only the number.

- Compound: "O=C(O)CCCc1ccc(N(CCCl)CCCl)cc1 [CLB, reference compound]"
  ROS Production (RFU): 110
- Compound: "Cc1cc2cccnc2c2ncccc12.N[C@H]1CCCC[C@@H]1N.[Cl][Pt][Cl]"
  ROS Production (RFU): 204
- Compound: "N[C@H]1CCCC[C@@H]1N.[Cl][Pt][Cl].c1cnc2c(c1)ccc1cccnc12"
  ROS Production (RFU): 174
- Compound: "Cc1c(C)c2cccnc2c2ncccc12.N[C@H]1CCCC[C@@H]1N.[Cl][Pt][Cl]"
  ROS Production (RFU): 240
- Compound: "CC(=O)N[C@@H](CS)C(=O)O [NAC, N-acetylcysteine, reference compound]"
  ROS Production (RFU): 71

Here's the next entry for you.
Query: Please look up its ROS Production: N.N.[Cl][Pt][Cl] [Cisplatin, cis-diamminedichloroplatinum(II), reference compound]
Result: 214

---

Test system: HT29 colon
Assay Overview: MTT growth inhibition assay, 72 h
Format: cell-based, human
Condition Notes: MTT, 72 h
Readout Label: GI50

- Compound: "Cc1cc2cccnc2c2ncccc12.N[C@H]1CCCC[C@@H]1N.[Cl][Pt][Cl] [5MESS]"
  Readout Label: "GI50"
  Observed: "33 nM"
- Compound: "N.N.O=C([O-])C1(C(=O)[O-])CCC1.[Pt+2] [Carboplatin, reference compound]"
  Readout Label: "GI50"
  Observed: "> 50000 nM"

Query: Entry under review: N[C@H]1CCCC[C@@H]1N.[Cl][Pt][Cl].c1cnc2c(c1)ccc1cccnc12 [PHENSS] . Reported GI50?
Result: 160 nM

Query: // returns reported GI50 for input Cc1cc2cccnc2c2ncccc12.N[C@H]1CCCC[C@@H]1N.O=C([O-])CCCc1ccc(N(CCCl)CCCl)cc1.O=[N+]([O-])[O-].O=[N+]([O-])[O-].[OH-].[Pt+4] [5CLB]
Result: 19 nM

---

System: MCF-7 breast
Assay Overview: MTT growth inhibition assay, 72 h
Assay type: cell-based, human
Condition Notes: MTT, 72 h
Readout Label: log10(GI50) (log10 of the value in nM)
The base-10 logarithm of GI50, taken with GI50 in nM, is what appears here.

Recorded log10(GI50), per entry:
- Molecule: "O=C(CCCc1ccc(N(CCCl)CCCl)cc1)[O][Pt-2]12([OH])([NH2+][C@H]3CCCC[C@@H]3[NH2+]1)[n+]1cccc3ccc4ccc[n+]2c4c31.O=[N+]([O-])[O-].O=[N+]([O-])[O-]"
  Observed: 2.83
- Molecule: "Cc1c(C)c2cccnc2c2ncccc12.N[C@H]1CCCC[C@@H]1N.O=C([O-])CCCc1ccc(N(CCCl)CCCl)cc1.O=[N+]([O-])[O-].O=[N+]([O-])[O-].[OH-].[Pt+4]"
  Observed: 1.80
- Molecule: "N[C@H]1CCCC[C@@H]1N.[Cl][Pt][Cl].c1cnc2c(c1)ccc1cccnc12"
  Observed: 3.18
- Molecule: "Cc1cc2cccnc2c2ncccc12.N[C@H]1CCCC[C@@H]1N.O=C([O-])CCCc1ccc(N(CCCl)CCCl)cc1.O=[N+]([O-])[O-].O=[N+]([O-])[O-].[OH-].[Pt+4]"
  Observed: 2.26

Query: What does the record list as log10(GI50) for O=C1[O][Pt]2([NH][C@@H]3CCCC[C@H]3[NH]2)[O]C1=O (relative stereo) [Oxaliplatin, reference compound] ?
Result: 2.70

Query: Give its log10(GI50) value. Item: N.N.[Cl][Pt][Cl] [Cisplatin, cis-diamminedichloroplatinum(II), reference compound]
Result: 3.81

Query: Look up log10(GI50) for this molecule: `Cc1c(C)c2cccnc2c2ncccc12.N[C@H]1CCCC[C@@H]1N.[Cl][Pt][Cl]`
Result: 1.97

Query: What value of log10(GI50) has been recorded for this entry: `Cc1cc2cccnc2c2ncccc12.N[C@H]1CCCC[C@@H]1N.[Cl][Pt][Cl]`
Result: 2.30
